- ASSAY_SYSTEM: human CTLA-4 (human) (UniProt P16410)
- Sequence (P16410 36-223): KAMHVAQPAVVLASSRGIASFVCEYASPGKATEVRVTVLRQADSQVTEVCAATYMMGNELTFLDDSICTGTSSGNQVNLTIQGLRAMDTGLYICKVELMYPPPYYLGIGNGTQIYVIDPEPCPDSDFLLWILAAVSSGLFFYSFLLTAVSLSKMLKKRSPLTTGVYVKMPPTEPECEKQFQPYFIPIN
- METHOD_DESCRIPTION: flow cytometry, CHO cells expressing huCTLA4
METRIC_NAME: MFI at 33.3 nM (MFI)
Give bare numbers, in MFI.

Completed entries (count: 7):
1) variant CD80 IgV-Fc H18Y/Q33L/E35D/M47I (Fc fusion) VIHVTKEVKEVATLSCGYNVSVEELAQTRIYWLKDKKMVLTMMSGDINIWPEYKNRTIFDITNNLSIVILALRPSDEGTYECVVLKYEKDAFKREHLAEVTLSVKAD : 5540
2) variant CD80 IgV-Fc E35D/M47I/L85Q/D90G (Fc fusion) VIHVTKEVKEVATLSCGHNVSVEELAQTRIYWQKDKKMVLTMMSGDINIWPEYKNRTIFDITNNLSIVILALRPSDEGTYECVVQKYEKGAFKREHLAEVTLSVKAD : 248000
3) variant CD80 IgV-Fc A26E/Q33L/E35D/M47L (Fc fusion) VIHVTKEVKEVATLSCGHNVSVEELEQTRIYWLKDKKMVLTMMSGDLNIWPEYKNRTIFDITNNLSIVILALRPSDEGTYECVVLKYEKDAFKREHLAEVTLSVKAD : 1320
4) variant CD80 IgV-Fc A26E/E35D/M43T/M47L/L85Q/R94Q (Fc fusion) VIHVTKEVKEVATLSCGHNVSVEELEQTRIYWQKDKKMVLTMTSGDLNIWPEYKNRTIFDITNNLSIVILALRPSDEGTYECVVQKYEKDAFKQEHLAEVTLSVKAD : 278000
5) variant CD80 IgV-Fc R29H/E35D/M43V/M47I/I49V (Fc fusion) VIHVTKEVKEVATLSCGHNVSVEELAQTHIYWQKDKKMVLTMVSGDINVWPEYKNRTIFDITNNLSIVILALRPSDEGTYECVVLKYEKDAFKREHLAEVTLSVKAD : 4690
6) variant CD80 IgV-Fc Q33L/E35D/M47I/T62N/L85Q (Fc fusion) VIHVTKEVKEVATLSCGHNVSVEELAQTRIYWLKDKKMVLTMMSGDINIWPEYKNRTIFDINNNLSIVILALRPSDEGTYECVVQKYEKDAFKREHLAEVTLSVKAD : 1660
7) variant CD80 IgV-Fc E35D/M47V/A71G/L85M/L97Q (Fc fusion) VIHVTKEVKEVATLSCGHNVSVEELAQTRIYWQKDKKMVLTMMSGDVNIWPEYKNRTIFDITNNLSIVILGLRPSDEGTYECVVMKYEKDAFKREHQAEVTLSVKAD : 239000

Ask: Given the binder variant CD80 IgV-Fc Q33L/E35D/T41S/M47V (Fc fusion) VIHVTKEVKEVATLSCGHNVSVEELAQTRIYWLKDKKMVLSMMSGDVNIWPEYKNRTIFDITNNLSIVILALRPSDEGTYECVVLKYEKDAFKREHLAEVTLSVKAD , what is its reported MFI at 33.3 nM?
Reply: 14500
